Recorded measurements of EC50, one per entry
target: CFTR-mediated chloride transport (Homo sapiens, UniProt P13569); conditions: enteroid cells incubated with test compound 18-24 hours; acute 10 μM forskolin and 300 nM Compound III
Sequence (P13569 whole entry, looked up): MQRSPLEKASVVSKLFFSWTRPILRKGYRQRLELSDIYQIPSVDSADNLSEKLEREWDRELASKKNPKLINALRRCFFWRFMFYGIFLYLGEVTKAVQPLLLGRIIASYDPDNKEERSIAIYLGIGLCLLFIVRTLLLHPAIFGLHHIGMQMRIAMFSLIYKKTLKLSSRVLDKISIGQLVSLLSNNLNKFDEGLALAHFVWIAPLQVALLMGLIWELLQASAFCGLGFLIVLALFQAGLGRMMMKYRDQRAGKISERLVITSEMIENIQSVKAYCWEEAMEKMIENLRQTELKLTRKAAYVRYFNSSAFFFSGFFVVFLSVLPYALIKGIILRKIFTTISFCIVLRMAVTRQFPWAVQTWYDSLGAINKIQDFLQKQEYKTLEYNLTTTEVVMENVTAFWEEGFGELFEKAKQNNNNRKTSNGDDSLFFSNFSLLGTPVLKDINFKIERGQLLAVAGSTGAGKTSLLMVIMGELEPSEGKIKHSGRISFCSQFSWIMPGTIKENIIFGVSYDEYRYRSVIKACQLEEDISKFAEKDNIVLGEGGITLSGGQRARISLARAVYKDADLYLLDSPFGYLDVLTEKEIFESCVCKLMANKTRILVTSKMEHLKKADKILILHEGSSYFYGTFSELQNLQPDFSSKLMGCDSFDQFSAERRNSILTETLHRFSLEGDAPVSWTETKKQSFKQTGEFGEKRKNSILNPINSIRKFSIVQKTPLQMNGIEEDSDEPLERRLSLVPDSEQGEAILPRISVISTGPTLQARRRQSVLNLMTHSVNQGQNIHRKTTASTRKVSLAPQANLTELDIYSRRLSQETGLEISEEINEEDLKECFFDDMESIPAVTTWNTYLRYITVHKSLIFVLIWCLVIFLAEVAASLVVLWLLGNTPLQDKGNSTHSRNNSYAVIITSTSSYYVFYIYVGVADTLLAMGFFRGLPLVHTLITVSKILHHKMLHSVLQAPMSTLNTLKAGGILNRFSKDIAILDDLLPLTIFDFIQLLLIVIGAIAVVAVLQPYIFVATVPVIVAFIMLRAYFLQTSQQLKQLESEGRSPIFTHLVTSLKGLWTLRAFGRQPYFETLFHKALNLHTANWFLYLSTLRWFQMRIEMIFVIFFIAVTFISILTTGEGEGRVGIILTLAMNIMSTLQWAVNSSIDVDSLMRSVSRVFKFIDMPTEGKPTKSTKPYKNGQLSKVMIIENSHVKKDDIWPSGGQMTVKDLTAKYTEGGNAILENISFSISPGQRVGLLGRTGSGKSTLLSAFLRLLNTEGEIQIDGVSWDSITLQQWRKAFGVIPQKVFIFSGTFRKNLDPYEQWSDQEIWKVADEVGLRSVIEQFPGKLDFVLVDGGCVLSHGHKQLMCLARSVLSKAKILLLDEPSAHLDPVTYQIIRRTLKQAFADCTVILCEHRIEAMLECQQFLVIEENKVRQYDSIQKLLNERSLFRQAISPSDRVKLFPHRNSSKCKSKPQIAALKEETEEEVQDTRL

Before answering, review these 5 worked examples.
[
  {
    "Compound": "CC(C)(C)CCC[C@H]1CCN(c2ccc3c(n2)N2C[C@@H](CCCNc4cccc(n4)S(=O)(=O)NC3=O)CC2(C)C)C1=O (single isomer, unassigned) [Compound 145]",
    "EC50": "< 1000 nM"
  },
  {
    "Compound": "CC1(C)C[C@@H]2CCCn3ccc(n3)S(=O)(=O)NC(=O)c3ccc(-n4ccc(OCCC5C6(CC6)C56CC6)n4)nc3N1C2 [Compound 187]",
    "EC50": "< 1000 nM"
  },
  {
    "Compound": "CC1(C)C[C@@H]2CCCNc3cc(O)cc(n3)S(=O)(=O)NC(=O)c3ccc(-n4ccc(OCCCC5(C(F)(F)F)CC5)n4)nc3N1C2 [Compound 265]",
    "EC50": "< 1000 nM"
  },
  {
    "Compound": "Cc1nn2cc1S(=O)(=O)NC(=O)c1ccc(-n3ccc(OCC(C)(C)C(F)(F)F)n3)nc1N1CC(CCC2)CC1(C)C (centres unmarked) [Compound 281]",
    "EC50": "1000 to 3000 nM"
  },
  {
    "Compound": "Cc1c2cnn1CCCC1CN(c3nc(-n4ccc(OCC(C)(C)C(F)(F)F)n4)ccc3C(=O)NS2(=O)=O)C(C)(C)C1 (single isomer, unassigned) [Compound 286]",
    "EC50": "< 1000 nM"
  }
]

INPUT: Identify the reported EC50 for the following entry. CN1CCC[C@@H]2CCC(C)(C)N2c2nc(-n3ccc(OCCC4(C(F)(F)F)CC4)n3)ccc2C(=O)NS(=O)(=O)c2cccc1n2 [Compound 11]
OUTPUT: < 1000 nM

INPUT: Identify the reported EC50 for the following entry. CC1(C)C[C@@H]2CCCNc3cccc(n3)S(=O)(=O)NC(=O)c3ccc(-n4ccc(O)n4)nc3N1C2 [Compound 256]
OUTPUT: > 3000 nM

INPUT: Identify the reported EC50 for the following entry. CC1(C)C[C@H]2CCCOc3cccc(n3)S(=O)(=O)NC(=O)c3ccc(-n4ccc(OCCC5(C(F)(F)F)CC5)n4)nc3N1C2 (single isomer, unassigned) [Compound 48]
OUTPUT: > 3000 nM
